Biological target: unphosphorylated PDGFRβ kinase (uPDGFRβ, Seq. ID No. 3) (Homo sapiens, UniProt P09619)
Sequence (P09619 557-1106): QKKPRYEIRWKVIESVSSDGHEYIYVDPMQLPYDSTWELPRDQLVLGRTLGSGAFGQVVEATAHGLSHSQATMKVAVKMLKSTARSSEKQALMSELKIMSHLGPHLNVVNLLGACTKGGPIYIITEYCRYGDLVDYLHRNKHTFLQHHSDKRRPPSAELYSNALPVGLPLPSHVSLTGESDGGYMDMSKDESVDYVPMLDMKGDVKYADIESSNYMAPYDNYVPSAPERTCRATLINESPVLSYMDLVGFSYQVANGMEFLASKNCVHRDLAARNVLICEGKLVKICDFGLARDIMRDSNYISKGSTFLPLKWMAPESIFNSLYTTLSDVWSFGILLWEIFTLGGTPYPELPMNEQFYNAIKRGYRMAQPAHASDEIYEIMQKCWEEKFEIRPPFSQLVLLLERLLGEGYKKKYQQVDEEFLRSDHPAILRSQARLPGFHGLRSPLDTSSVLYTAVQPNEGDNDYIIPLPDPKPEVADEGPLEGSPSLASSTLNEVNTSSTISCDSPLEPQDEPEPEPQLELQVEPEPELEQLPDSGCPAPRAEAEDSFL
Assay: uPDGFRβ kinase enzymatic assay (pyruvate kinase/lactate dehydrogenase coupled)
Settings: ATP 500 μM, rate 1.5 to 2.5 h
recordedMetric: IC50

{"columns": ["smilesRepresentation", "IC50"],
 "data": [
  ["Cc1nc(-n2nc(C3(C)CC3)[nH]c2=O)ccc1Oc1ccnc(-c2cnn(C)c2)c1", "> 1 µM"]
]}

Lab note: "Cc1nc(-n2nc(C(C)(C)CO)[nH]c2=O)ccc1Oc1ccnc(-c2cnn(C)c2)c1" gave IC50 of > 1 µM

Query "Cc1nc(-n2nc(C3CCOCC3)[nH]c2=O)ccc1Oc1ccnc(-c2cnn(C)c2)c1" yields IC50 of > 1 µM

For record "Cc1nc(-n2nc(-c3ccc(F)cc3)[nH]c2=O)ccc1Oc1ccnc(NC(=O)C2CC2)c1" the listed IC50 is 0.1 to 1 µM

Field IC50 (entry "CC(=O)Nc1cc(Oc2ccc(-n3nc(C(C)(C)C)[nH]c3=O)nc2C)ccn1" ) reads > 1 µM

The recorded IC50 for entry "Cc1nc(-n2nc(C(C)(C)C)n(C)c2=O)ccc1Oc1ccnc(-c2cnn(C)c2)c1" equals > 1 µM

Measured IC50 of "Cc1nc(-n2nc(C(C)(C)C)[nH]c2=O)ccc1Oc1ccnc(NC(=O)N(C)C)c1" : > 1 µM

---

Collected IC50 values appear next to each entry.
Target: unphosphorylated c-FMS kinase (uFMS, Seq. ID no. 1) (Homo sapiens, UniProt P07333)
Sequence (P07333 538-972): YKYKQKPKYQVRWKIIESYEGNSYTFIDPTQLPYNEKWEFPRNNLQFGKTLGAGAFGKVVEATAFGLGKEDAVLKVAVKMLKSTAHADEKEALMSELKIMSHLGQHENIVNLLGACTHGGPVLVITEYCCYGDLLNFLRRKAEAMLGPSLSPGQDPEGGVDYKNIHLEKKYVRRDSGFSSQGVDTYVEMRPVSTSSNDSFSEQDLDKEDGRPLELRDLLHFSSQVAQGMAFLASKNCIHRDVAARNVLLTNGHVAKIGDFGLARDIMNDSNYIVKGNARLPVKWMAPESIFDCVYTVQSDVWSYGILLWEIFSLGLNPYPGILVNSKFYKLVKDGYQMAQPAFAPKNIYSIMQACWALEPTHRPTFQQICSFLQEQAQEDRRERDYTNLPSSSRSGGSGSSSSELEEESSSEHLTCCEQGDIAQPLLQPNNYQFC
Assay: uFMS kinase enzymatic assay (pyruvate kinase/lactate dehydrogenase coupled)
Conditions: ATP 500 μM, rate 3 to 4 h

Look over these answered cases.
{"columns": ["compound", "IC50"],
 "data": [
  ["Cc1nc(-n2nc(C(C)(C)C)[nH]c2=O)ccc1Oc1cc(-c2cnn(C)c2)ncn1 [Example 47]", "10 to 100 nM"],
  ["Cc1cc(-n2nc(C(C)(C)C)[nH]c2=O)nc(C)c1Oc1ccnc(-c2cnn(C)c2)c1 [Example 33]", "10 to 100 nM"],
  ["Cc1nc(-n2nc(C3CCOCC3)[nH]c2=O)ccc1Oc1ccnc(-c2cnn(C)c2)c1 [Example 20]", "≤ 10 nM"],
  ["Cc1nc(-n2nc(C(C)(C)C)[nH]c2=O)ccc1Oc1ccnc(NC(=O)N(C)C)c1 [Example 30]", "10 to 100 nM"],
  ["Cc1nc(-n2nc(-c3ccc(F)cc3)[nH]c2=O)ccc1Oc1ccnc(NC(=O)C2CC2)c1 [Example 32]", "10 to 100 nM"],
  ["COC(C)(C)c1nn(-c2ccc(Oc3ccnc(-c4cnn(C)c4)c3)c(C)n2)c(=O)[nH]1 [Example 16]", "10 to 100 nM"]
]}

// IC50 lookup, compound = Cn1cc(-c2cc(Oc3ccc(-n4nc(C(C)(C)C)[nH]c4=O)nc3)ccn2)cn1 [Example 4] , result: ≤ 10 nM

// Cc1nc(-n2nc(C(C)(C)CO)[nH]c2=O)ccc1Oc1ccnc(-c2cnn(C)c2)c1 [Example 42] : IC50 value = 10 to 100 nM

The measured IC50 associated with Cc1nc(-n2nc(C3CCCC3)[nH]c2=O)ccc1Oc1ccnc(-c2cnn(C)c2)c1 [Example 34] reads ≤ 10 nM

response.value for COCCc1nn(-c2ccc(Oc3ccnc(-c4cnn(C)c4)c3)c(C)n2)c(=O)[nH]1 [Example 15] (field: IC50) = 10 to 100 nM

The recorded IC50 for Cc1nc(-n2nc(C3CC3)[nH]c2=O)ccc1Oc1ccnc(-c2cnn(C)c2)c1 [Example 35] is 100 to 1000 nM

Entry CCn1cc(-c2cc(Oc3ccc(-n4nc(C(C)(C)C)[nH]c4=O)nc3C)ccn2)cn1 [Example 38] — recorded IC50 = ≤ 10 nM

// data source = patent US9193719B2
